Assay: Mean AUC(0-t) of diclofenac following single oral dosing of 50 mg Cataflam in healthy human
Assay type: ADME, organism-based
Set-up: dietary status Fasting, dose 50 mg, dosed compound id 2.46815e+06, dosed compound name Diclofenac potassium, gender Mixed, regimen Single, route oral, study doses 50 mg
Settings: both, plasma
property-name: AUC(0-t)
Record the result as number plus unit.

query: Please give the documented AUC(0-t) of O=C(O)Cc1ccccc1Nc1c(Cl)cccc1Cl [DICLOFENAC]
result: 1130 ng·h/mL

---

Assay: clinical
Conditions: both, human, plasma, po, 25 mg
property-name: half-life (h)
Give the quantity in h, number only.

query: Please give the documented half-life of `O=C(O)Cc1ccccc1Nc1c(Cl)cccc1Cl`
result: 1.35

---

Experiment: Mean apparent terminal elimination rate constant value of diclofenac following single oral dosing of 50 mg Cataflam tablet in healthy human
Type: ADME, organism-based, Plasma
Set-up: dietary status Fasting, dose 50 mg, dosed compound id 2.46815e+06, dosed compound name Diclofenac potassium, gender Mixed, regimen Single, route oral
Settings: in vivo
property-name: lambda-z

query: Please give the documented lambda-z of O=C(O)Cc1ccccc1Nc1c(Cl)cccc1Cl [DICLOFENAC]
result: 0.333 h⁻¹

---

Experiment: clinical
Conditions: both, human, plasma, po, 50 mg
property-name: half-life (h)
Give the quantity in h, number only.

query: Please give the documented half-life of `O=C(O)Cc1ccccc1Nc1c(Cl)cccc1Cl`
result: 1.45

---

Experiment: Mean Cmax of diclofenac following single oral dosing of 50 mg Cataflam in healthy human
Format: ADME, organism-based
Set-up: dietary status Fasting, dose 50 mg, dosed compound id 2.46815e+06, dosed compound name Diclofenac potassium, gender Mixed, regimen Single, route oral, study doses 50 mg
Details: both, plasma
property-name: Cmax (ng/mL)
Give the quantity in ng/mL, number only.

query: Please give the documented Cmax of `O=C(O)Cc1ccccc1Nc1c(Cl)cccc1Cl`
result: 1170

---

Assay: Mean median Tmax value of diclofenac potassium following oral dosing of Cataflam 50 mf tablet in healthy human
Format: ADME, organism-based
Design: dietary status Fed, dose 50 mg, dosed compound id 2.46815e+06, dosed compound name Diclofenac potassium, gender Mixed, regimen Single, route oral, study doses 50 mg
Conditions: both, plasma, 50 mg, read-out: Median Tmax
property-name: Tmax (h)
Give the quantity in h, number only.

query: Please give the documented Tmax of O=C(O)Cc1ccccc1Nc1c(Cl)cccc1Cl [DICLOFENAC]
result: 1.25

---

Assay: Mean terminal elimination half-life of diclofenac potassium following oral dosing of Cataflam 50 mf tablet in healthy human
Settings: both, plasma, 50 mg
property-name: half-life (min)
Give the quantity in min, number only.

query: Please give the documented half-life of O=C(O)Cc1ccccc1Nc1c(Cl)cccc1Cl [DICLOFENAC]
result: 77.4

---

Assay: Mean Cmax of diclofenac following single oral dosing of 50 mg diclofenac potassium softgel capsule in healthy human
Format: ADME, organism-based
Set-up: dietary status Fasting, dose 50 mg, dosed compound id 2.46815e+06, dosed compound name Diclofenac potassium, gender Mixed, regimen Single, route oral, study doses 25/50 mg
Conditions: both, plasma
property-name: Cmax (ng/mL)
Give the quantity in ng/mL, number only.

query: Please give the documented Cmax of `O=C(O)Cc1ccccc1Nc1c(Cl)cccc1Cl`
result: 2360

---

Experiment: Mean apparent terminal elimination rate constant value of diclofenac following single oral dosing of 35 mg Zorvolex capsule in healthy human
Type: ADME, organism-based, Plasma
Set-up: dietary status Fed, dose 35 mg, dosed compound id 2.46815e+06, dosed compound name Diclofenac, gender Mixed, regimen Single, route oral
Conditions: in vivo
property-name: lambda-z (h⁻¹)
Give the quantity in h⁻¹, number only.

query: Please give the documented lambda-z of O=C(O)Cc1ccccc1Nc1c(Cl)cccc1Cl [DICLOFENAC]
result: 0.371

---

Experiment: Mean AUC(0-t) of diclofenac potassium following oral dosing of PRO-513 50 mg sachet in healthy human
Format: ADME, organism-based
Design: dietary status Fasting, dose 50 mg, dosed compound id 2.46815e+06, dosed compound name Diclofenac potassium, gender Mixed, regimen Single, route oral, study doses 50 mg
Conditions: both, plasma
property-name: AUC(0-t) (ng·h/mL)
Give the quantity in ng·h/mL, number only.

query: Please give the documented AUC(0-t) of O=C(O)Cc1ccccc1Nc1c(Cl)cccc1Cl [DICLOFENAC]
result: 1240

---

Assay: Mean Cmax of diclofenac following single oral dosing of 25 mg diclofenac potassium soft gelatin capsule in healthy human
Assay type: ADME, organism-based
Set-up: dietary status Fasting, dose 25 mg, dosed compound id 2.46815e+06, dosed compound name Diclofenac potassium, gender Mixed, regimen Single, route oral, study doses 25/50 mg
Details: both, plasma
property-name: Cmax (ng/mL)
Give the quantity in ng/mL, number only.

query: Please give the documented Cmax of `O=C(O)Cc1ccccc1Nc1c(Cl)cccc1Cl`
result: 1120

---

Assay: Mean AUC (0-infinity) of diclofenac following single oral dosing of 25 mg diclofenac potassium softgel capsule in healthy human
Type: ADME, organism-based
Design: time infinity, dietary status Fed, dose 25 mg, dosed compound id 2.46815e+06, dosed compound name Diclofenac potassium, gender Mixed, regimen Single, route oral, study doses 25/50 mg
Details: both, plasma, read-out: AUC (0-infinity)
property-name: AUC(0-inf) (ng·h/mL)
Give the quantity in ng·h/mL, number only.

query: Please give the documented AUC(0-inf) of `O=C(O)Cc1ccccc1Nc1c(Cl)cccc1Cl`
result: 713

---

Test: Mean AUC (0-infinity) value of diclofenac following single oral dosing of 50 mg Cataflam tablet in healthy human
Assay type: ADME, organism-based
Set-up: time infinity, dietary status Fed, dose 50 mg, dosed compound id 2.46815e+06, dosed compound name Diclofenac potassium, gender Mixed, regimen Single, route oral
Settings: both, plasma, read-out: AUC (0-infinity)
property-name: AUC(0-inf) (ng·h/mL)
Give the quantity in ng·h/mL, number only.

query: Please give the documented AUC(0-inf) of `O=C(O)Cc1ccccc1Nc1c(Cl)cccc1Cl`
result: 1200

---

Assay: Mean Cmax of diclofenac potassium following oral dosing of Cataflam 50 mf tablet in healthy human
Type: ADME, organism-based
Parameters: dietary status Fasting, dose 50 mg, dosed compound id 2.46815e+06, dosed compound name Diclofenac potassium, gender Mixed, regimen Single, route oral, study doses 50 mg
Conditions: both, plasma, 50 mg
property-name: Cmax (ng/mL)
Give the quantity in ng/mL, number only.

query: Please give the documented Cmax of `O=C(O)Cc1ccccc1Nc1c(Cl)cccc1Cl`
result: 1160

---

Test: Mean Cmax of diclofenac potassium following oral dosing of Cataflam 50 mf tablet in healthy human
Format: ADME, organism-based
Parameters: dietary status Fed, dose 50 mg, dosed compound id 2.46815e+06, dosed compound name Diclofenac potassium, gender Mixed, regimen Single, route oral, study doses 50 mg
Settings: both, plasma, 50 mg
property-name: Cmax (ng/mL)
Give the quantity in ng/mL, number only.

query: Please give the documented Cmax of O=C(O)Cc1ccccc1Nc1c(Cl)cccc1Cl [DICLOFENAC]
result: 835

---

Assay: Mean terminal elimination half-life of diclofenac potassium following oral dosing of Cataflam 50 mf tablet in healthy human
Details: both, plasma, 50 mg
property-name: half-life (h)
Give the quantity in h, number only.

query: Please give the documented half-life of `O=C(O)Cc1ccccc1Nc1c(Cl)cccc1Cl`
result: 1.56

---

Assay: Mean AUC(0-t) of diclofenac following single oral dosing of 50 mg diclofenac potassium soft gelatin capsule in healthy human
Assay type: ADME, organism-based
Design: dietary status Fasting, dose 50 mg, dosed compound id 2.46815e+06, dosed compound name Diclofenac potassium, gender Mixed, regimen Single, route oral, study doses 25/50 mg
Settings: both, plasma
property-name: AUC(0-t) (ng·h/mL)
Give the quantity in ng·h/mL, number only.

query: Please give the documented AUC(0-t) of `O=C(O)Cc1ccccc1Nc1c(Cl)cccc1Cl`
result: 1200

---

Experiment: Mean median Tmax value of diclofenac potassium following oral dosing of PRO-513 50 mg sachet in healthy human
Format: ADME, organism-based
Parameters: dietary status Fed, dose 50 mg, dosed compound id 2.46815e+06, dosed compound name Diclofenac potassium, gender Mixed, regimen Single, route oral, study doses 50 mg
Settings: both, plasma, read-out: Median Tmax
property-name: Tmax (min)
Give the quantity in min, number only.

query: Please give the documented Tmax of `O=C(O)Cc1ccccc1Nc1c(Cl)cccc1Cl`
result: 10.2

---

Test: Geometric mean for AUC (0-t) of diclofenac following single oral dosing of 35 mg Zorvolex capsule in healthy human
Assay type: ADME, organism-based
Parameters: dietary status Fasting, dose 35 mg, dosed compound id 2.46815e+06, dosed compound name Diclofenac, gender Mixed, regimen Single, route oral
Conditions: both, plasma
property-name: AUC(0-t)
Record the result as number plus unit.

query: Please give the documented AUC(0-t) of O=C(O)Cc1ccccc1Nc1c(Cl)cccc1Cl [DICLOFENAC]
result: 980 ng·h/mL

---

Experiment: Mean apparent terminal elimination rate constant value of diclofenac following single oral dosing of 50 mg Cataflam tablet in healthy human
Type: ADME, organism-based, Plasma
Set-up: dietary status Fed, dose 50 mg, dosed compound id 2.46815e+06, dosed compound name Diclofenac potassium, gender Mixed, regimen Single, route oral
Conditions: in vivo
property-name: lambda-z

query: Please give the documented lambda-z of `O=C(O)Cc1ccccc1Nc1c(Cl)cccc1Cl`
result: 0.332 h⁻¹
